Tested on: MDA-N
Assay: NCI tumour cell line growth inhibition, 48 h
reported endpoint: TGI (µM)
Respond with the bare value in µM.

INSERT INTO measurements (compound, reported_endpoint, value_unit, assay_result) VALUES
  ('Cc1ccc2nc(Cl)c(/C=N/N3C(=O)/C(=C/c4cccc([N+](=O)[O-])c4)N=C3c3ccccc3)cc2c1', 'TGI', 'µM', 42.2);

Consider the additional compound presented here.
# compound CC1OC(OC2C(O)COC(OC3C(C)OC(OC4C(OC(=O)[C@]56CCC(C)(C)C[C@@H]5C5=CCC7[C@@]8(C)C[C@H](O)[C@H](OC9OC(CO)C(O)C(OC%10OC(CO)C(O)C(O)C%10O)C9O)[C@@](C)(CO)[C@@H]8CC[C@@]7(C)[C@]5(C)CC6)OCC(O)C4O)C(O)C3OC3OCC(O)(CO)C3O)C2O)C(O)C(O)C1O (some centres undefined) ; its TGI = 19.2

Source: PubChem BioAssay (NCI)
